Record form. Attribute: cell viability. Fill in for each entry.
System: NCI-H2228 parental
experimental details: cell viability relative to vehicle (fraction of vehicle); NCI-H2228 is an ALK-positive lung cancer line and DTP means drug-tolerant persister; higher = less growth inhibition
condition parameters: 100 nM; treatment time 6 days
Over roughly 2,800 compounds, “cell viability relative to vehicle” has its median near 1.1; the lowest 2% begin near 0.19. Many of the other results were omitted from the sample, so the lowest values are more common in it than they were.
Field format: numeric only.

Prompt: Consider the molecule C[C@@H]1CCCCCCCCCCCCC(=O)C1 [Muscone] and give its recorded cell viability.
Completion: 1.13

Prompt: Quickly give me recorded cell viability for CC(CCc1ccccn1)(CCc1ccccn1)C(=O)c1ccccc1 [JAK2 Inhibitor V]
Completion: 1.08

Prompt: In one line, give reported cell viability of the entry C[C@@H]1O[C@@H](O[C@@H]2[C@@H](O)[C@H](OCCc3ccc(O)c(O)c3)O[C@H](CO)[C@H]2OC(=O)/C=C/c2ccc(O)c(O)c2)[C@H](O)[C@H](O)[C@H]1O [Verbascoside] .
Completion: 1.03

Prompt: Give reported cell viability value for CC(=O)OC(CC(C)C1=C2C[C@H](O)C3[C@@]4(C)CCC(=O)C(C)(C)C4CC[C@]3(C)[C@@]2(C)CC1)C1OC1(C)C (stereo not given in full) [Alisol B 23-acetate]
Completion: 0.99

Prompt: Identify measured cell viability corresponding to COc1cc(/C=C/C(=O)OC[C@H]2O[C@H](O[C@]3(CO)O[C@H](CO)[C@@H](O)[C@@H]3OC(=O)/C=C/c3cc(OC)c(O)c(OC)c3)[C@H](O)[C@@H](O)[C@@H]2O)cc(OC)c1O [3,6'-Disinapoyl sucrose]
Completion: 0.963

Prompt: Item O=c1cc(-c2ccc(O)c(-c3c(O)cc(O)c4c(=O)cc(-c5ccc(O)cc5)oc34)c2)oc2cc(O)cc(O)c12 [Amentoflavone] : provide cell viability
Completion: 1.08

Prompt: # return recorded cell viability for input COc1ccc(CCc2cc(OC)c(OC)c(OC)c2)cc1O [Erianin]
Completion: 0.335

Prompt: Report measured cell viability; entry is CC(=O)O[C@H]1C(=O)[C@@]2(C)[C@H]([C@H](OC(=O)c3ccccc3)[C@]3(O)C[C@H](OC(=O)[C@H](O)[C@@H](NC(=O)c4ccccc4)c4ccccc4)C(C)=C1C3(C)C)[C@]1(OC(C)=O)CO[C@@H]1C[C@@H]2O [Paclitaxel]
Completion: 0.128

Prompt: Entry COc1ccc(S(=O)(=O)Nc2ccccc2C=Cc2ccncc2)cc1 needs its cell viability filled in; supply it.
Completion: 0.238

Prompt: Please report the measured cell viability for COc1ccc(C(=C2C(=O)Nc3ccccc32)c2ccc(OC)cc2)cc1
Completion: 1.05

Prompt: Please look at this molecule and report its cell viability: O=C(CNc1ccc2ccccc2c1)N/N=C/c1cc(Br)c(O)c(Br)c1O
Completion: 1.05

Prompt: Tell us which cell viability value is on record for CC1(C)CC[C@]2(C(=O)O)CC[C@]3(C)C(=CC[C@@H]4[C@@]5(C)CCC(=O)C(C)(C)[C@@H]5CC[C@]43C)[C@@H]2C1 [Oleanonic Acid]
Completion: 1.12

Prompt: Tell us which cell viability value is on record for CCNC(=O)Nc1ccc(-c2nc(N3CCOC[C@@H]3C)c3c(n2)C(C)(C)S(=O)(=O)C3)cc1
Completion: 0.547

Prompt: Tell me cell viability reported for N#Cc1cnc(Nc2cc(NC[C@H]3CNCCO3)c(C(F)(F)F)cn2)cn1
Completion: 1.07

Prompt: Indicate the recorded cell viability value for this molecule: N[C@@H](CO)C(=O)O [serine]
Completion: 1.06

// provenance: the supplement of paper PMC10600219
